Test Method Notes: Pharmacokinetics in rats after single po and iv dosing
Run Parameters: rat, in vivo, iv, 30 mg/kg
Observation Type: clearance (mL/min/kg)

a: CCCCN1C(=O)C(CC2CCCCC2)NC(=O)C12CCN(Cc1ccc(Oc3ccccc3)cc1)CC2.Cl (centres unmarked)
b: CCCCN1C(=O)[C@H](CC2CCCCC2)NC(=O)C12CCN(Cc1ccc(Oc3ccc(C(=O)O)cc3)cc1)CC2.Cl
Problem: Identify the entry with the smaller clearance: a or b . Answer = label.
Result: b
(b: 16 mL/min/kg, a: 113 mL/min/kg)

* * *

Test Method Notes: Stability in rat liver microsomes
Type: in vitro ADME
Observation Type: remaining at 0.25 h (%)
# value in %; strip the unit string

Problem: Which remaining at 0.25 h value is on record for CCCCN1C(=O)[C@H](CC2CCCCC2)NC(=O)C12CCN(Cc1ccc(Oc3ccc(C(=O)O)cc3)cc1)CC2.Cl [Compound 12] ?
Result: 22

* * *

Test Method Notes: Caco2 permeability
Type: in vitro ADME
Run Parameters: human, Caco-2
Observation Type: Papp (×10⁻⁶ cm/s)
The figure you give is taken to be in ×10⁻⁶ cm/s; do not add the unit.

Problem: Which Papp is listed for CCCCN1C(=O)[C@H](CC2CCCCC2)NC(=O)C12CCN(Cc1ccc(Oc3ccc(C(=O)O)cc3)cc1)CC2.Cl [Compound 12] ?
Result: 26.4

* * *

Test Method Notes: Pharmacokinetics in rats after single po and iv dosing
Run Parameters: rat, in vivo, po, 30 mg/kg
Observation Type: AUC (µg·h/mL)
Give the number; µg·h/mL is assumed, so skip it.

Problem: What does the record list as AUC for `CCCCN1C(=O)[C@H](CC2CCCCC2)NC(=O)C12CCN(Cc1ccc(Oc3ccc(C(=O)O)cc3)cc1)CC2.Cl` ?
Result: 10.5

* * *

Test Method Notes: Pharmacokinetics in rats after single po and iv dosing
Run Parameters: rat, in vivo, iv, 30 mg/kg
Observation Type: half-life (min)
Number only, in min; omit the unit.

Problem: Reported half-life, molecule CCCCN1C(=O)[C@H](CC2CCCCC2)NC(=O)C12CCN(Cc1ccc(Oc3ccc(C(=O)O)cc3)cc1)CC2.Cl [Compound 12] : ____
Result: 11.1

* * *

Test Method Notes: Pharmacokinetics in rats after single po and iv dosing
Run Parameters: rat, plasma, iv, 30 mg/kg
Observation Type: AUC(0-inf) (ng·h/mL)
Express your answer in ng·h/mL, writing the number without its unit.

Problem: Query (compound): `CCCCN1C(=O)[C@H](CC2CCCCC2)NC(=O)C12CCN(Cc1ccc(Oc3ccc(C(=O)O)cc3)cc1)CC2.Cl` ; field requested: AUC(0-inf)
Result: 3090

* * *

Test Method Notes: Pharmacokinetics in rats after single po and iv dosing
Run Parameters: rat, plasma, po, 30 mg/kg
Observation Type: AUC(0-inf) (ng·h/mL)
# unit: ng·h/mL | format: bare number

Problem: May I ask what AUC(0-inf) has been recorded for `CCCCN1C(=O)[C@H](CC2CCCCC2)NC(=O)C12CCN(Cc1ccc(Oc3ccc(C(=O)O)cc3)cc1)CC2.Cl` ?
Result: 10500
